Biological target: Recombinant Human 5′-Nucleotidase (CD73) (Homo sapiens, UniProt P21589)
Construct: CHO derived CD73 (Trp27-Lys547), with a C-terminal 6-His tag; 6-His (C); purchased R&D 5795-EN; host or cells: CHO
Sequence (P21589 27-547): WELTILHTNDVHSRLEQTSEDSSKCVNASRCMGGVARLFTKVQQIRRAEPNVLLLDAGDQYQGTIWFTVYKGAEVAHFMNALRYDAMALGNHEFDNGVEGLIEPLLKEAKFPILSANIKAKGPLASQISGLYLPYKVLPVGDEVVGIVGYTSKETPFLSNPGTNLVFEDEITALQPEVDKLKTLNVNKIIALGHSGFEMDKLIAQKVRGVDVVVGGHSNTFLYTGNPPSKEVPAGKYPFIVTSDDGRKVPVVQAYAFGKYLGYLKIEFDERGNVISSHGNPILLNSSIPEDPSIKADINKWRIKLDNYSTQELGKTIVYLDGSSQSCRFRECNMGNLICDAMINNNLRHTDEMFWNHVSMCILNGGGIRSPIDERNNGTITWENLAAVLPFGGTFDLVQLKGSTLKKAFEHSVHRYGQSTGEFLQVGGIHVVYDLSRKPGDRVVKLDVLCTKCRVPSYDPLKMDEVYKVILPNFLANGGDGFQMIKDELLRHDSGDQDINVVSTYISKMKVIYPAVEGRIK
Assay: CD73 Enzyme Assay
Format: biochemical
Settings: human CD73 0.5 nM, AMP 30 μM, PiColorLock phosphate detection; read-out: Potency (IC50, CD73 enzyme assay)
Method: Soluble recombinant CD73 catalyzes the conversion of adenosine monophosphate (AMP) to adenosine and inorganic phosphate. The phosphate detection reagent, PiColorLock™ (Innova Bioscience, Cat #303-0125) is based on the change in absorbance of the dye malachite green in the presence of inorganic phosphate (Pi) and this property can be exploited to measure any enzyme that generates Pi. […] After incubation the absorbance of the solution is read at OD 635 nm. […]
A collection of compounds and their measured IC50

Please review the entries below; each comes with its answer.
- C[C@@H](Nc1nc(Cl)nn2c([C@@H]3O[C@H](COP(=O)(O)CP(=O)(O)O)[C@@H](O)[C@H]3O)cnc12)c1ccccc1 [Compound 34]: < 10 nM
- C[C@H](Nc1nc(Cl)nn2c(C3O[C@H](COP(=O)(O)CP(=O)(O)O)[C@@H](O)[C@@H]3F)cnc12)c1ccccc1F (some centres unmarked) [Compound 74]: 10 to 99 nM
- O=P(O)(CP1(=O)OCC[C@@H](c2cccc(Cl)c2)O1)OC[C@H]1O[C@@H](c2cnc3c(NC4CCCC4)nc(Cl)nn23)[C@H](O)[C@@H]1O (some centres unmarked) [Compound 58]: 100 to 999 nM
- CC(C)OC(=O)OCOP(=O)(CP(=O)(O)OC[C@H]1O[C@@H](c2cnc3c(NC4CCCC4)nc(Cl)nn23)[C@H](O)[C@@H]1O)OCOC(=O)OC(C)C [Compound 70]: 100 to 999 nM
- CC(C)(C)[C@@H]1CCCN1c1nc(Cl)nn2c([C@@H]3O[C@H](COP(=O)(O)CP(=O)(O)O)[C@@H](O)[C@H]3O)cnc12 [Compound 38]: 10 to 99 nM

*Q* Fetch value of IC50 on Recombinant Human 5′-Nucleotidase (CD73) (Homo sapiens, UniProt P21589) for O=P(O)(O)CP(=O)(O)OC[C@H]1O[C@@H](c2cnc3c(NC4CCc5ccccc54)nc(Cl)nn23)[C@H](O)[C@@H]1O (some centres unmarked) [Compound 9] .
*A* < 10 nM

*Q* Fetch value of IC50 on Recombinant Human 5′-Nucleotidase (CD73) (Homo sapiens, UniProt P21589) for O=C1C[C@H](Nc2nc(Cl)nn3c([C@@H]4O[C@H](COP(=O)(O)CP(=O)(O)O)[C@@H](O)[C@H]4O)cnc23)CN1 [Compound 26] .
*A* 10 to 99 nM

*Q* Fetch value of IC50 on Recombinant Human 5′-Nucleotidase (CD73) (Homo sapiens, UniProt P21589) for COC1CCC(Nc2nc(Cl)nn3c([C@@H]4O[C@H](COP(=O)(O)CP(=O)(O)O)[C@@H](O)[C@H]4O)cnc23)C1 (some centres unmarked) [Compound 23] .
*A* < 10 nM

*Q* Fetch value of IC50 on Recombinant Human 5′-Nucleotidase (CD73) (Homo sapiens, UniProt P21589) for O=P(O)(O)CP(=O)(O)OC[C@H]1O[C@@H](c2cnc3c(N4CCCC45CCC5)nc(Cl)nn23)[C@H](O)[C@@H]1O [Compound 41] .
*A* < 10 nM

*Q* Fetch value of IC50 on Recombinant Human 5′-Nucleotidase (CD73) (Homo sapiens, UniProt P21589) for O=P(O)(O)CP(=O)(O)OC[C@H]1O[C@@H](c2cnc3c(NCc4ccccc4Cl)nc(Cl)nn23)[C@H](O)[C@@H]1O [Compound 11] .
*A* < 10 nM

*Q* Fetch value of IC50 on Recombinant Human 5′-Nucleotidase (CD73) (Homo sapiens, UniProt P21589) for CO[C@H]1CC[C@@H](Nc2nc(Cl)nn3c([C@@H]4O[C@H](COP(=O)(O)CP(=O)(O)O)[C@@H](O)[C@H]4O)cnc23)CC1 [Compound 27] .
*A* < 10 nM

*Q* Fetch value of IC50 on Recombinant Human 5′-Nucleotidase (CD73) (Homo sapiens, UniProt P21589) for O=P(O)(O)CP(=O)(O)OC[C@H]1O[C@@H](c2cnc3c(N4CCCC4)nc(Cl)nn23)[C@H](O)[C@@H]1O [Compound 65] .
*A* < 10 nM

*Q* Fetch value of IC50 on Recombinant Human 5′-Nucleotidase (CD73) (Homo sapiens, UniProt P21589) for CN(c1nc(Cl)nn2c([C@@H]3O[C@H](COP(=O)(O)CP(=O)(O)O)[C@@H](O)[C@H]3O)cnc12)[C@H]1CCc2ccccc21 [Compound 30] .
*A* < 10 nM

*Q* Fetch value of IC50 on Recombinant Human 5′-Nucleotidase (CD73) (Homo sapiens, UniProt P21589) for O=P(O)(O)CP(=O)(O)OC[C@H]1O[C@@H](c2cnc3c(N[C@@H]4CCc5ccccc54)nc(Cl)nn23)[C@H](O)[C@@H]1O [Compound 28] .
*A* < 10 nM

*Q* Fetch value of IC50 on Recombinant Human 5′-Nucleotidase (CD73) (Homo sapiens, UniProt P21589) for O=P(O)(O)CP(=O)(O)OC[C@H]1O[C@@H](c2cnc3c(N4CC5CCCC5C4)nc(Cl)nn23)[C@H](O)[C@@H]1O (some centres unmarked) [Compound 10] .
*A* < 10 nM

*Q* Fetch value of IC50 on Recombinant Human 5′-Nucleotidase (CD73) (Homo sapiens, UniProt P21589) for O=P(O)(O)CP(=O)(O)OC[C@H]1O[C@@H](c2cnc3c(N4CCC[C@H]4c4ccccc4)nc(Cl)nn23)[C@H](O)[C@@H]1O [Compound 64] .
*A* < 10 nM

*Q* Fetch value of IC50 on Recombinant Human 5′-Nucleotidase (CD73) (Homo sapiens, UniProt P21589) for NC(=O)c1nc(NC2CCCC2)c2ncc([C@@H]3O[C@H](COP(=O)(O)CP(=O)(O)O)[C@@H](O)[C@H]3O)n2n1 [Compound 66] .
*A* < 10 nM

*Q* Fetch value of IC50 on Recombinant Human 5′-Nucleotidase (CD73) (Homo sapiens, UniProt P21589) for O=P(O)(O)CP(=O)(O)OC[C@H]1O[C@@H](c2cnc3c(N[C@H]4CC[C@H](N5CCCCC5)C4)nc(Cl)nn23)[C@H](O)[C@@H]1O [Compound 79] .
*A* < 10 nM

*Q* Fetch value of IC50 on Recombinant Human 5′-Nucleotidase (CD73) (Homo sapiens, UniProt P21589) for O=P(O)(O)CP(=O)(O)OC[C@H]1O[C@@H](c2cnc3c(NC4CCCC4)nc(Cl)nn23)[C@@H](F)[C@@H]1O [Compound 7] .
*A* 10 to 99 nM

*Q* Fetch value of IC50 on Recombinant Human 5′-Nucleotidase (CD73) (Homo sapiens, UniProt P21589) for COP(=O)(CP(=O)(OC)OC[C@H]1O[C@@H](c2cnc3c(NC4CCCC4)nc(Cl)nn23)[C@H](O)[C@@H]1O)OC (some centres unmarked) [Compound 57] .
*A* > 1000 nM

*Q* Fetch value of IC50 on Recombinant Human 5′-Nucleotidase (CD73) (Homo sapiens, UniProt P21589) for O=P(O)(O)CP(=O)(O)OC[C@H]1O[C@@H](c2cnc3c(N4CCc5ccccc5C4)nc(Cl)nn23)[C@H](O)[C@@H]1O [Compound 19] .
*A* < 10 nM

*Q* Fetch value of IC50 on Recombinant Human 5′-Nucleotidase (CD73) (Homo sapiens, UniProt P21589) for CC(C)(C)[C@H]1CCCN1c1nc(Cl)nn2c([C@@H]3O[C@H](COP(=O)(O)CP(=O)(O)O)[C@@H](O)[C@H]3O)cnc12 [Compound 51] .
*A* 10 to 99 nM

*Q* Fetch value of IC50 on Recombinant Human 5′-Nucleotidase (CD73) (Homo sapiens, UniProt P21589) for O=P(O)(O)CP(=O)(O)OC[C@H]1O[C@@H](c2cnc3c(NCC4CCC(O)CC4)nc(Cl)nn23)[C@H](O)[C@@H]1O (some centres unmarked) [Compound 77] .
*A* < 10 nM
